- target system: α4β2 nAChR Subtype (Rattus norvegicus, UniProt P09483+P12390)
- Sequence (P09483 31-630): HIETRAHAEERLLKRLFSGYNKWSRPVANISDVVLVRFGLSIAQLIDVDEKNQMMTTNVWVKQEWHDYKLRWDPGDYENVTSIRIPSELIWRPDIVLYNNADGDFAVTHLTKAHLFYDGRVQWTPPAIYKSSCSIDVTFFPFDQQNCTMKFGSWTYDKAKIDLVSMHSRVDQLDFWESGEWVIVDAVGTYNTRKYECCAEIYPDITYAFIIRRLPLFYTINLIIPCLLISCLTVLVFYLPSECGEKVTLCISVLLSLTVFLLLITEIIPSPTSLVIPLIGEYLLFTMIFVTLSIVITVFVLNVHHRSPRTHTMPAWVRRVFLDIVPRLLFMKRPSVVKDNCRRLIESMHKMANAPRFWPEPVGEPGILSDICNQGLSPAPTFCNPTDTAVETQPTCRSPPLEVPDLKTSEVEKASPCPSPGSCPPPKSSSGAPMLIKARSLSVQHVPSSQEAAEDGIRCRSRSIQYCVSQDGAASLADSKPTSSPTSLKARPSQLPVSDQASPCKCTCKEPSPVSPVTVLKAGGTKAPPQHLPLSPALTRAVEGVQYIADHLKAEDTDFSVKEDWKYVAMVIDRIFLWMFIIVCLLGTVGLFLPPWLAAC
- Sequence (P12390 25-500): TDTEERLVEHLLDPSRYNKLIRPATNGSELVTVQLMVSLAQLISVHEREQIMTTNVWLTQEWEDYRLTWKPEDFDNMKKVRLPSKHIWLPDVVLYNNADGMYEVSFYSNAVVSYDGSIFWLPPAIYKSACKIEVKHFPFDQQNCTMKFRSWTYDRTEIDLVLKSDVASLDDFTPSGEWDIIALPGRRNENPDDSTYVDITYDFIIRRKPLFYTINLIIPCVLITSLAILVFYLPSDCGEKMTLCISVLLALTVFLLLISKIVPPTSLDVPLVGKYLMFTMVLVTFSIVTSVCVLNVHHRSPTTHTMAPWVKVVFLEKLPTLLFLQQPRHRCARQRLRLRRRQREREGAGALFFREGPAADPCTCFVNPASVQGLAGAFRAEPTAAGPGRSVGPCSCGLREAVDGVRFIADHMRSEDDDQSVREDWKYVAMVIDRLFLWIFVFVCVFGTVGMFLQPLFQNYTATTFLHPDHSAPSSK
- measurement notes: Radioligand binding at α4β2 nAChR subtype, inhibition of [3H]nicotine binding, rat cerebral cortex membranes
- experimental context: [3H]nicotine 5 nM, read-out: Rat α4β2 Ki
- Procedure: The [^3H]nicotine (Specific Activity=81.5 Ci/mmol) was obtained from NEN Research Products. The binding of [^3H]nicotine was measured using a 3 h incubation at 4° C. […] Each filter was washed with ice-cold buffer (3×1 mL). Each concentration was replicated in triplicate.
Measured pKi accompanies every entry in the list below.
// pKi here means minus log10 of the molar concentration (mol/L)

These recorded examples may help you get a feel for the data.
# compound, measured value
rows = [
    ("O=C(NCC(F)(F)F)C1CC2CNCC(C2)C1 (centres unmarked)", 7.39),
    ("CC(=O)C1C[C@H]2CNC[C@H]2C1 (mixture of isomers)", 8.14),
]

Memo: O=C(Nc1ccccc1F)C1CC2CNCC(C2)C1 (centres unmarked) , reported pKi: 7.20

Measured pKi, O=C(OC1CCOC1)C1C[C@H]2CNC[C@H]2C1 (some centres unmarked) : 6.89

* * *

- target system: α7 nAChR Subtype (Rattus norvegicus, UniProt Q05941)
- Sequence (Q05941 23-502): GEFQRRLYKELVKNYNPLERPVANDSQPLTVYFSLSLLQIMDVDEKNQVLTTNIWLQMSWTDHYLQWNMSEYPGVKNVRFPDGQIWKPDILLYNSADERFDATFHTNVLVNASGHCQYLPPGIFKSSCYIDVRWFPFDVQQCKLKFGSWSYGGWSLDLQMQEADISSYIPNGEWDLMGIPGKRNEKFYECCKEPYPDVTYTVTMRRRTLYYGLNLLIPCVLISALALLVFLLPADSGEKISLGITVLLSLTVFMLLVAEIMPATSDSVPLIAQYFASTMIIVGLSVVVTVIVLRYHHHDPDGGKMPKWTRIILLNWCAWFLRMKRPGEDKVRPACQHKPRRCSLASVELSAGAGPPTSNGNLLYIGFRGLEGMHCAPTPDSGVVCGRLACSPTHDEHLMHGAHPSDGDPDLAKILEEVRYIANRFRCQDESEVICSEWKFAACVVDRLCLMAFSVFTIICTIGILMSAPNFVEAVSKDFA
- measurement notes: Radioligand binding at α7 nAChR subtype, inhibition of [3H]MLA binding, rat hippocampus membranes (HTS at 5 μM, then Ki)
parameter measured: Ki

Here are 5 molecules together with their reported answers.
# molecule, Ki
data = [
    ("C=CCNC(=O)C1C[C@H]2CNC[C@H]2C1 (mixture of isomers)", "≥ 10 µM"),
    ("CC(C)C(=O)C1C[C@H]2CNC[C@H]2C1 (mixture of isomers)", "2.38 µM"),
    ("O=C(OC1CCOC1)C1C[C@H]2CNC[C@H]2C1 (stereo partly shown)", "> 10 µM"),
    ("O=C(NCc1ccco1)C1C[C@H]2CNC[C@H]2C1 (mixture of isomers)", "74.9 µM"),
    ("CNC(=O)C1CC2CNCC(C2)C1 (stereo not shown)", "> 10 µM"),
]

# CC(C)OC(=O)C1C[C@H]2CNC[C@H]2C1 (mixture of isomers) with α7 nAChR Subtype (Rattus norvegicus, UniProt Q05941): Ki is > 10 µM

Ki of NC(=O)C1CC2CNCC(C2)C1 (stereo not shown) [3-azabicyclo[3.3.1]nonane-7-carboxamide] , assay on α7 nAChR Subtype (Rattus norvegicus, UniProt Q05941), is > 10 µM

The molecule NC(=O)C1C[C@H]2CNC[C@H]2C1 (mixture of isomers) [3-azabicyclo[3.3.0]octane-7-carboxamide] on α7 nAChR Subtype (Rattus norvegicus, UniProt Q05941): Ki was 8.28 µM

Entry CC(C)C(=O)C1CC2CNCC(C2)C1 (stereo not shown) ; assay system α7 nAChR Subtype (Rattus norvegicus, UniProt Q05941); Ki recorded at > 10 µM

// assay α7 nAChR Subtype (Rattus norvegicus, UniProt Q05941), entry C#CCN(C)C(=O)C1C[C@H]2CNC[C@H]2C1 (stereo partly shown) , Ki value = ≥ 10 µM

// returns Ki for CN(C)C(=O)C1=C[C@@H]2CNC[C@@H]2C1 with α7 nAChR Subtype (Rattus norvegicus, UniProt Q05941); value = > 10 µM

Lab entry: α7 nAChR Subtype (Rattus norvegicus, UniProt Q05941) assay, molecule CNC(=O)C1C[C@H]2CNC[C@H]2C1 (mixture of isomers) , Ki = 27.3 µM

Observed Ki on α7 nAChR Subtype (Rattus norvegicus, UniProt Q05941), entry C/C=C/C(=O)C1C[C@H]2CNC[C@H]2C1 (stereo partly shown) , equals > 10 µM

The molecule COC(=O)C1C[C@H]2CNC[C@H]2C1 (mixture of isomers) on α7 nAChR Subtype (Rattus norvegicus, UniProt Q05941): Ki was > 10 µM

Recorded Ki for O=C(OCC1CC1)C1C[C@H]2CNC[C@H]2C1 (mixture of isomers) on α7 nAChR Subtype (Rattus norvegicus, UniProt Q05941) was > 10 µM

Item O=C(c1ccco1)C1CC2CNCC(C2)C1 (stereo not shown) was tested on α7 nAChR Subtype (Rattus norvegicus, UniProt Q05941); the reported Ki is > 10 µM

Lab note: molecule O=C(OC1CCC1)C1C[C@H]2CNC[C@H]2C1 (mixture of isomers) tested on α7 nAChR Subtype (Rattus norvegicus, UniProt Q05941); recorded Ki was > 10 µM

Item: CN(C)C(=O)C1CC2CNCC(C2)C1 (stereo not shown) | System: α7 nAChR Subtype (Rattus norvegicus, UniProt Q05941) | Ki: > 10 µM

Fill in: α7 nAChR Subtype (Rattus norvegicus, UniProt Q05941) Ki for O=C(NCCF)C1CC2CNCC(C2)C1 (stereo not shown) = > 10 µM
